Numbers sourced from patent US9796672B2.

# Measured Target: Sigma-2 receptor
# Measurement Description: Sigma-2 receptor competitive radioligand binding assay
# Experimental Conditions: read-out: Sigma-2 Receptor Affinity, Ki
pKi: −log10 of the molar value.
Metric Name: pKi

[
  {
    "Smiles Structure": "CC(C)(CCc1ccc(F)cc1)N1Cc2cc3c(cc2C1)OCO3",
    "pKi": 8.28
  }
]

I. COc1cc(CCC(C)(C)N2Cc3cccc(F)c3C2)ccc1OCCO
II. COc1cc(CCC(C)(C)N2Cc3cccc(C(=O)NCCN(C)C)c3C2)ccc1O
III. CC(C)Oc1ccc(CCC(C)(C)N2Cc3ccc(F)cc3C2)cc1OC(C)C
// sort entries: pKi, high to low Would you mind listing the labels in the order requested?
III, I, II

###

# Measurement Description: Mouse liver microsome (MLM) stability
# Format: in vitro ADME
# Experimental Conditions: mouse, microsomes
Metric Name: Mouse liver microsomes, MLM t½ (min)

Below, each entry is followed by its recorded Mouse liver microsomes, MLM t½ result.
[
  {
    "Smiles Structure": "C[C@H](CCc1ccc(O)c(OC(F)(F)F)c1)N1Cc2ccc(F)cc2C1",
    "Measurement Unit": "min",
    "Mouse liver microsomes, MLM t½": 6
  },
  {
    "Smiles Structure": "CC(C)COc1cc(CCC(C)(C)N2Cc3cccc(F)c3C2)ccc1O",
    "Measurement Unit": "min",
    "Mouse liver microsomes, MLM t½": 28
  },
  {
    "Smiles Structure": "CC(C)Oc1cc(CC[C@@H](C)N2Cc3ccc(F)cc3C2)ccc1O",
    "Measurement Unit": "min",
    "Mouse liver microsomes, MLM t½": 5
  },
  {
    "Smiles Structure": "CC(C)Oc1ccc(CC[C@@H](C)N2Cc3cc4c(cc3C2)OCO4)cc1OC(C)C",
    "Measurement Unit": "min",
    "Mouse liver microsomes, MLM t½": 6
  },
  {
    "Smiles Structure": "CC(C)COc1cc(CCC(C)(C)N2Cc3ccc(S(C)(=O)=O)cc3C2)ccc1O",
    "Measurement Unit": "min",
    "Mouse liver microsomes, MLM t½": 86
  },
  {
    "Smiles Structure": "COc1cc(CCC(C)(C)N2Cc3cccc(C(=O)NCCN(C)C)c3C2)ccc1O",
    "Measurement Unit": "min",
    "Mouse liver microsomes, MLM t½": 450
  },
  {
    "Smiles Structure": "COc1cc(CC[C@@H](C)N2Cc3ccc(C(F)(F)F)cc3C2)ccc1O",
    "Measurement Unit": "min",
    "Mouse liver microsomes, MLM t½": 28
  },
  {
    "Smiles Structure": "C[C@H](CCc1ccc(F)cc1)N1Cc2ccc(F)cc2C1",
    "Measurement Unit": "min",
    "Mouse liver microsomes, MLM t½": 7
  },
  {
    "Smiles Structure": "COc1cc(CC[C@@H](C)N2Cc3cccc(S(C)(=O)=O)c3C2)ccc1O",
    "Measurement Unit": "min",
    "Mouse liver microsomes, MLM t½": 41
  }
]

1. CC(C)(C)Oc1cc(CCC(C)(C)N2Cc3ccc(S(C)(=O)=O)cc3C2)ccc1O
2. CC(C)Oc1cc(CC[C@@H](C)N2Cc3ccc(S(C)(=O)=O)cc3C2)ccc1O
Task for the reader: decide whether 1 or 2 has the larger Mouse liver microsomes, MLM t½. Returns: label corresponding to the selected item.
2
